Give CLint scaled at 2 μM for every item shown.
Assay: Liver microsomes stability, human
Details: human, microsomes
Method: The objective of this study was to estimate in vitro metabolic stability of 1-12 in pooled human and male mouse liver microsomes. The concentrations of parent compounds in reaction systems were evaluated by LC-MS/MS for estimating the stability in pooled human and male mouse liver microsomes. The in vitro intrinsic clearances of test compounds were determined as well. […] All calculations were carried out using Microsoft Excel. Peak areas were determined from extracted ion chromatograms. […]
Just the number please, in mL/min/kg, no unit attached.

[in] Would you kindly share the measured CLint scaled at 2 μM for [2H]C1([2H])CC(c2c[nH]c3cccc(OCc4ccccc4)c23)C([2H])([2H])N1C (single isomer, unassigned) ?
[out] 17.6

[in] Next: [2H]C1([2H])CC(c2c[nH]c3cccc(O)c23)C([2H])([2H])N1C (stereo not drawn)
[out] 4.99

[in] Now try CN(C)CCc1c[nH]c2cccc(O)c12 [Psilocin, 4-hydroxy-N,N-dimethyltryptamine, reference compound] .
[out] 14.8

[in] Now the molecule [2H]C1([2H])CC(c2c[nH]c3cccc(O)c23)C([2H])([2H])N1 (stereo not drawn)
[out] 1.32

[in] Proceed to [2H]C([2H])N1CCC(c2c[nH]c3cccc(OCc4ccccc4)c23)C1 (single isomer, unassigned)
[out] 31.6

[in] Try [2H]C([2H])N1CCC(c2c[nH]c3cccc(O)c23)C1 (stereo not drawn) next.
[out] 4.95

----------
Experiment: Liver microsomes stability, human
Details: Human, Without NADPH, 60 min
propertyLabel: Remaining Percentage (%) 60 min
Your answer is read as %, so omit the unit and give the number.

[in] Recorded Remaining Percentage (%) 60 min for [2H]C([2H])N1CCC(c2c[nH]c3cccc(OCc4ccccc4)c23)C1 (single isomer, unassigned) , please?
[out] 112.84

[in] Can you check [2H]C1([2H])CC(c2c[nH]c3cccc(OCc4ccccc4)c23)C([2H])([2H])N1C (single isomer, unassigned) next?
[out] 99.55

[in] Now the same for [2H]C1([2H])CC(c2c[nH]c3cccc(O)c23)C([2H])([2H])N1 (stereo not shown)
[out] 115.64

[in] Now consider [2H]C([2H])N1CCC(c2c[nH]c3cccc(O)c23)C1 (stereo not shown) .
[out] 96.34

[in] What do you have for [2H]C1([2H])CC(c2c[nH]c3cccc(OCc4ccccc4)c23)C([2H])([2H])N1 (stereo not shown) ?
[out] 119.60

[in] Moving on to the next compound: CN(C)CCc1c[nH]c2cccc(O)c12 [Psilocin, 4-hydroxy-N,N-dimethyltryptamine, reference compound]
[out] 87.13

[in] Next: [2H]C1([2H])CC(c2c[nH]c3cccc(O)c23)C([2H])([2H])N1C (stereo not shown)
[out] 80.14

----------
Assay: Liver microsomes stability, mouse
Settings: male, mouse, microsomes
propertyLabel: half-life at 2 μM (h)
Note: unit h is implicit; provide only the numeric part.

[in] # query: half-life at 2 μM of entry [2H]C([2H])N1CCC(c2c[nH]c3cccc(OCc4ccccc4)c23)C1 (single isomer, unassigned)
[out] 0.225

[in] Okay, and [2H]C1([2H])CC(c2c[nH]c3cccc(O)c23)C([2H])([2H])N1C (centres unmarked) ?
[out] 1.53

[in] Param item: [2H]C1([2H])CC(c2c[nH]c3cccc(OCc4ccccc4)c23)C([2H])([2H])N1C (single isomer, unassigned)
[out] 0.711

[in] Try the compound [2H]C([2H])N1CCC(c2c[nH]c3cccc(O)c23)C1 (centres unmarked)
[out] 4.24

[in] Same thing, different compound: [2H]C1([2H])CC(c2c[nH]c3cccc(OCc4ccccc4)c23)C([2H])([2H])N1 (centres unmarked)
[out] 2.02

----------
Assay: Liver microsomes stability, human
Conditions: Human, With NADPH, 60 min
Kindly state Remaining Percentage (%) 60 min for each of the entries shown.
Give a bare numeral; the unit % is implied.

[in] Fill in: Remaining Percentage (%) 60 min of [2H]C1([2H])CC(c2c[nH]c3cccc(O)c23)C([2H])([2H])N1 (stereo not drawn) [Compound I-33] is ___
[out] 96.89

[in] And [2H]C1([2H])CC(c2c[nH]c3cccc(OCc4ccccc4)c23)C([2H])([2H])N1 (stereo not drawn) [Compound I-35] ?
[out] 104.21

[in] Now the molecule CN(C)CCc1c[nH]c2cccc(O)c12 [Psilocin, 4-hydroxy-N,N-dimethyltryptamine, reference compound]
[out] 70.16

----------
Experiment: Liver microsomes stability, rat
Conditions: rat, microsomes
Would you mind telling me the reported CLint scaled at 2 μM of each entry?
Kindly provide the numeric value in L/h/kg only, without the unit symbol.

[in] Give the measured CLint scaled at 2 μM of [2H]C1([2H])CC(c2c[nH]c3cccc(OCc4ccccc4)c23)C([2H])([2H])N1 (stereo not shown) .
[out] 1.59

[in] And [2H]C([2H])N1CCC(c2c[nH]c3cccc(O)c23)C1 (stereo not shown) ?
[out] 0.0588

[in] Entry [2H]C1([2H])CC(c2c[nH]c3cccc(O)c23)C([2H])([2H])N1 (stereo not shown) please
[out] 1.25

[in] And then [2H]C1([2H])CC(c2c[nH]c3cccc(O)c23)C([2H])([2H])N1C (stereo not shown) , what is it?
[out] 2.41

----------
Molecular target: human 5-HT2A (h5-HT2A) receptor (Homo sapiens (Human))
Experiment: FLIPR assay, human 5-HT2A receptor under agonist mode
Conditions: FLIPR calcium
pEC50: −log10 of the molar value.
propertyLabel: pEC50

[in] // query pEC50 value for entry [2H]C1([2H])CC(c2c[nH]c3cccc(OCc4ccccc4)c23)C([2H])([2H])N1C (single isomer, unassigned)
[out] < 5.00

[in] // same read-out, input: [2H]C([2H])N1CCC(c2c[nH]c3cccc(O)c23)C1 (stereo not shown)
[out] > 6.00

[in] Another compound to check: [2H]C([2H])N1CCC(c2c[nH]c3cccc(OCc4ccccc4)c23)C1 (single isomer, unassigned)
[out] < 5.00

[in] Same again, this time with [2H]C([2H])N1C([2H])([2H])CC(c2c[nH]c3cccc(F)c23)C1([2H])[2H] (stereo not shown)
[out] 5.00 to 6.00

[in] Now the same for [2H]C1([2H])CC(c2c[nH]c3cccc(O)c23)C([2H])([2H])N1C (stereo not shown)
[out] > 6.00

[in] Try this compound too: [2H]C1([2H])CC(c2c[nH]c3cccc(OCc4ccccc4)c23)C([2H])([2H])N1 (stereo not shown)
[out] > 6.00

[in] Okay, and [2H]C1([2H])CC(c2c[nH]c3cccc(O)c23)C([2H])([2H])N1 (stereo not shown) ?
[out] < 5.00

----------
Test: Liver microsomes stability, rat
Conditions: Rat, Without NADPH, 0 min
Provide the reported Remaining Percentage (%) 0 min of each item.
Report the figure in % without appending any unit label.

[in] Entry CN(C)CCc1c[nH]c2cccc(O)c12 [Psilocin, 4-hydroxy-N,N-dimethyltryptamine, reference compound] has what Remaining Percentage (%) 0 min?
[out] 100.00

[in] How about this compound: [2H]C1([2H])CC(c2c[nH]c3cccc(OCc4ccccc4)c23)C([2H])([2H])N1C (single isomer, unassigned)
[out] 100.00

[in] What would you report for [2H]C([2H])N1CCC(c2c[nH]c3cccc(OCc4ccccc4)c23)C1 (single isomer, unassigned) ?
[out] 100.00

[in] Same thing, different compound: [2H]C([2H])N1CCC(c2c[nH]c3cccc(O)c23)C1 (stereo not shown)
[out] 100.00

[in] Repeat for the following compound: [2H]C1([2H])CC(c2c[nH]c3cccc(O)c23)C([2H])([2H])N1C (stereo not shown)
[out] 100.00

[in] Follow-up entry: [2H]C1([2H])CC(c2c[nH]c3cccc(OCc4ccccc4)c23)C([2H])([2H])N1 (stereo not shown)
[out] 100.00

[in] Now try [2H]C1([2H])CC(c2c[nH]c3cccc(O)c23)C([2H])([2H])N1 (stereo not shown) .
[out] 100.00

----------
Assay: Liver microsomes stability, mouse
Details: male, mouse, microsomes
Binarize CLint scaled at 2 μM at 50 mL/min/kg; below is fulfilled, at or above is not fulfilled.

[in] Record [2H]C1([2H])CC(c2c[nH]c3cccc(OCc4ccccc4)c23)C([2H])([2H])N1C (single isomer, unassigned) [Compound I-37] : is its CLint scaled at 2 μM strictly below 50 mL/min/kg?
[out] not fulfilled

[in] Queued: CN(C)CCc1c[nH]c2cccc(O)c12 [Psilocin, 4-hydroxy-N,N-dimethyltryptamine, reference compound]
[out] fulfilled

[in] Could you do the same for [2H]C1([2H])CC(c2c[nH]c3cccc(O)c23)C([2H])([2H])N1C (stereo not drawn) [Compound I-34] , please?
[out] not fulfilled

[in] Note, next up: [2H]C([2H])N1CCC(c2c[nH]c3cccc(OCc4ccccc4)c23)C1 (single isomer, unassigned) [Compound I-36]
[out] not fulfilled

[in] Now consider [2H]C([2H])N1CCC(c2c[nH]c3cccc(O)c23)C1 (stereo not drawn) [Compound I-32] and answer again.
[out] fulfilled
